test system: NF-κB; experiment: Measurement of NF-κB activation using THP1-Blue NF-κB cells (SEAP); format: cell-based; conditions: compound 5 μM + LPS, 20 h; two point normalized, compound 1 as 200%, LPS (10 ng/mL) as 100%; read-out: NF-κB SEAP Compound + LPS % Activation

{"molecule": "Cc1ccc(C)c(-c2csc(N(C)C(=O)c3ccc(S(=O)(=O)N4CCCCC4)cc3)n2)c1 [Compound 34c]", "unit_spec": "%", "activity at 5 µM": 105}
{"molecule": "Cc1cccc(C)c1-c1csc(NC(=O)c2ccc(S(=O)(=O)N3CCCCC3)cc2)n1 [Compound 12p]", "unit_spec": "%", "activity at 5 µM": 209}
{"molecule": "CCCC#Cc1sc(NC(=O)c2ccc(S(=O)(=O)N3CCCCC3)cc2)nc1-c1cc(C)ccc1C [Compound 18q]", "unit_spec": "%", "activity at 5 µM": 242}
{"molecule": "Cc1csc(NC(=O)c2ccc(S(=O)(=O)N3CCCCC3)cc2)n1 [Compound 12g]", "unit_spec": "%", "activity at 5 µM": 101}
{"molecule": "Cc1ccc2c(c1)-c1nc(NC(=O)c3ccc(S(=O)(=O)N4CCCCC4)cc3)sc1C2 [Compound 12r]", "unit_spec": "%", "activity at 5 µM": 95.6}
{"molecule": "CCCN(CC)S(=O)(=O)c1ccc(C(=O)Nc2nc(-c3cc(C)ccc3C)cs2)cc1 [Compound 58a]", "unit_spec": "%", "activity at 5 µM": 217}
{"molecule": "Cc1ccc(C)c(-c2nc(NC(=O)c3ccc(S(=O)(=O)N4CCCCC4)cc3)sc2C)c1 [Compound 18m]", "unit_spec": "%", "activity at 5 µM": 179}
{"molecule": "CCCN1CCN(S(=O)(=O)c2ccc(C(=O)Nc3nc(-c4cc(C)ccc4C)cs3)cc2)CC1 [Compound 58k]", "unit_spec": "%", "activity at 5 µM": 110}

The measured values listed here are drawn from patent US12091393B2.
